# Assay Procedure: yeast display, Sf9 membrane polyspecificity reagent, FACS + sequencing; frameworks hold sequencing errors

{"columns": ["Seq Text", "polyreactivity (PSR sort gate)"],
 "data": [
  ["QVQLVESGGGLVQAGGILRLSCAASGRTFGLYAMGRYRQAPGKERELVAAITRSDGGTNYADSVKGRFTISRDNAKNTVYLQMNSLKAEDTAVYYCAVDLGYVSHVSWYAYEYWGQGTQVTVSS", "low polyreactivity"],
  ["QVQLVESGGGLVQAGGSLRLSCAASGGIYYYAMGWYRQAPGKERELVAAISSGGGNTNYADSVKGRFTLSRDNAKNTVYLQMNSLKPEDTAVYYCATDGFIPTYSYTEIGYDYWGQGTQVTVSS", "low polyreactivity"]
]}

# credit: the nanobody polyreactivity screen of Harvey et al. (2022)
